Values from patent US20220387375A1

Target: TRPV1 (Rattus norvegicus, UniProt O35433)
Construct: FLAG; expressed in transfected cells
Sequence (O35433 whole entry): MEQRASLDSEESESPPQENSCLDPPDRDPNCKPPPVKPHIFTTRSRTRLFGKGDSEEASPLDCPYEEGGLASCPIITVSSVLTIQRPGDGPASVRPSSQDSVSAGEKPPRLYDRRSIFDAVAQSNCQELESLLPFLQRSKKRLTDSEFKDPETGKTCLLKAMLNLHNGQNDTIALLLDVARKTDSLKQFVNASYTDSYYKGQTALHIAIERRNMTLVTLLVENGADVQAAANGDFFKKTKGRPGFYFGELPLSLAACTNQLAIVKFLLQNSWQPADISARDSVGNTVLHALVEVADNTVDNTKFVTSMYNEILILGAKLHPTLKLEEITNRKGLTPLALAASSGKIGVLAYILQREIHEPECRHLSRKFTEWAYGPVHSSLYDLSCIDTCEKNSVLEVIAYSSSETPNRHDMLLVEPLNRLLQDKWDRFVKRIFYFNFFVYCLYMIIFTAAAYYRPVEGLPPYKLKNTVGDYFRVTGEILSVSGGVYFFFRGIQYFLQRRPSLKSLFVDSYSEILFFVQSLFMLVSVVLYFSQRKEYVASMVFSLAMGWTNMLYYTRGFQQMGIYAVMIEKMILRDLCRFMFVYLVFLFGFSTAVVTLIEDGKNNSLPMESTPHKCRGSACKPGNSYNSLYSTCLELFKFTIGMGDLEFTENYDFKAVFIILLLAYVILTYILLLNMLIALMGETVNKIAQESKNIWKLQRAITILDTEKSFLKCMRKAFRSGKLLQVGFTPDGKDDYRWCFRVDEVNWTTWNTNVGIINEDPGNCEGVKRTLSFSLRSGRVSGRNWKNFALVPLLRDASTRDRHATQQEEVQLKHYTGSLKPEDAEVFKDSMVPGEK
Assay: Whole-cell patch clamp of TRPV1 currents in HEK293 cells overexpressing TRPV1 (HEK293-V1)
Type: cell-based
Conditions: cannabinoid at 50, 5 μM myrcene or 1 μM capsaicin
Experimental: HEK TRexTRPV1 were cultured in DMEM, 10% Fetal Bovine Serum, 2 mM Lglutamine, 10 μg/ml Blasticidin (Calbiochem, San Diego Calif.), 400 μg/ml Zeocin (InvivoGen, San Diego Calif.), where indicated transgene expression was induced using 1 μg/ml Tetracycline for 16-24 hrs. […] This technique is used to study ionic currents from HEK293-V1. The voltage across the cell membrane is controlled and the ionic currents associated with changes in voltage are measured. […]
readoutLabel: time course of induced TRPV1 current (sustained or inactivating)

Look over these answered cases.
C=C(C)[C@@H]1CCC(C)=C[C@H]1c1c(O)cc(CCCCC)cc1O: sustained
C=C(C)[C@@H]1CCC(C)=C[C@H]1c1c(O)cc(CCC)cc1O: sustained
CCCCCc1cc(O)c(C/C=C(\C)CCC=C(C)C)c(O)c1: sustained
COc1cc(CNC(=O)CCCC/C=C/C(C)C)ccc1O [capsaicin, Capsaicin, reference compound]: sustained

Can you look up the measured time course of induced TRPV1 current (sustained or inactivating) of C=CC(=C)CCC=C(C)C for me?
rapidly inactivating

Now consider CCCCCc1cc(O)c2c(c1)OC(C)(C)c1ccc(C)cc1-2 and answer again.
rapidly inactivating
